Cited source: paper PMC10812921

binding signal overview
- system name: POU2 (OCT2 POU domain) (human, UniProt P09086 175-386)
- Sequence: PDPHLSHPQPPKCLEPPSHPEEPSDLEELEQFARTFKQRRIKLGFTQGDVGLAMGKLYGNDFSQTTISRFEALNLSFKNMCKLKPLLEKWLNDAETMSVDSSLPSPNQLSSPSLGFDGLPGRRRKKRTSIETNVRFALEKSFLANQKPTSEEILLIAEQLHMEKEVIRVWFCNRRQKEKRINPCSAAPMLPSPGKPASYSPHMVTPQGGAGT
- procedure details: EMSA-SELEX-seq; no BOB1; 20 mM Tris-HCl pH 7.6, 140 mM NaCl, 10% glycerol, 0.5 mM EDTA, 0.05% Triton X-100, 0.1 mg/mL BSA, 0.1 mg/mL poly(dI-dC), 5 mM DTT, room temperature, 20 min; high values mean tight binding
- measurement conditions: protein: recombinant; dsDNA, one strand shown

| ordered residues | binding signal |
| --- | --- |
| ACATAAAT | 0.251 % of ANNNNAAN 8-mers |
| AGTCAAAA | 0.117 % of ANNNNAAN 8-mers |
| AGTCCAAC | 0.0167 % of ANNNNAAN 8-mers |
| ATCGTAAC | 0.0288 % of ANNNNAAN 8-mers |
| AATATAAC | 0.0817 % of ANNNNAAN 8-mers |
| ACATAAAA | 0.114 % of ANNNNAAN 8-mers |
| ACACCAAG | 0.0178 % of ANNNNAAN 8-mers |
| AAGTGAAC | 0.0305 % of ANNNNAAN 8-mers |
| ACCCCAAT | 0.0167 % of ANNNNAAN 8-mers |
| ATGCTAAA | 0.293 % of ANNNNAAN 8-mers |
| ACTGCAAC | 0.0155 % of ANNNNAAN 8-mers |
| ACAAGAAC | 0.0201 % of ANNNNAAN 8-mers |
| AACTCAAA | 0.0368 % of ANNNNAAN 8-mers |
| ATTTGAAC | 0.0558 % of ANNNNAAN 8-mers |
| AATCCAAT | 0.0552 % of ANNNNAAN 8-mers |
| ACGTGAAG | 0.0282 % of ANNNNAAN 8-mers |
| ACCTTAAT | 0.0679 % of ANNNNAAN 8-mers |
| AAATTAAA | 0.349 % of ANNNNAAN 8-mers |
| ATGTGAAC | 0.0386 % of ANNNNAAN 8-mers |
| AAATAAAG | 0.151 % of ANNNNAAN 8-mers |
| AGCAAAAA | 0.0604 % of ANNNNAAN 8-mers |
| AAGCTAAC | 0.0178 % of ANNNNAAN 8-mers |
| AATACAAC | 0.0403 % of ANNNNAAN 8-mers |
| AAGGAAAG | 0.0524 % of ANNNNAAN 8-mers |
| AGGCAAAG | 0.0783 % of ANNNNAAN 8-mers |
| ACCTGAAT | 0.0656 % of ANNNNAAN 8-mers |
| ATGGTAAT | 1.28 % of ANNNNAAN 8-mers |
| ATGCCAAC | 0.0293 % of ANNNNAAN 8-mers |
| AGTCTAAT | 0.166 % of ANNNNAAN 8-mers |
| ACAGTAAT | 0.0725 % of ANNNNAAN 8-mers |
| AAGCGAAA | 0.0391 % of ANNNNAAN 8-mers |
| ACCCGAAG | 0.0109 % of ANNNNAAN 8-mers |
| AGCAAAAT | 0.0702 % of ANNNNAAN 8-mers |
| AACTCAAG | 0.0219 % of ANNNNAAN 8-mers |
| ACATGAAA | 0.0708 % of ANNNNAAN 8-mers |
| AAGGAAAC | 0.0403 % of ANNNNAAN 8-mers |
| ATCTGAAA | 0.046 % of ANNNNAAN 8-mers |
| AACCAAAA | 0.0449 % of ANNNNAAN 8-mers |
| AGCCAAAC | 0.0196 % of ANNNNAAN 8-mers |
| ACACAAAT | 0.0857 % of ANNNNAAN 8-mers |
| AAAACAAC | 0.0345 % of ANNNNAAN 8-mers |
| ATTAAAAC | 0.122 % of ANNNNAAN 8-mers |
| ACCGTAAA | 0.0253 % of ANNNNAAN 8-mers |
| ACAAAAAT | 0.0667 % of ANNNNAAN 8-mers |
| AAGGCAAC | 0.0167 % of ANNNNAAN 8-mers |
| AGTTTAAT | 0.156 % of ANNNNAAN 8-mers |
| AATATAAT | 0.286 % of ANNNNAAN 8-mers |
| AGGACAAA | 0.046 % of ANNNNAAN 8-mers |
| ATTGGAAG | 0.0547 % of ANNNNAAN 8-mers |
| ACGACAAT | 0.0299 % of ANNNNAAN 8-mers |
| ATAGGAAA | 0.112 % of ANNNNAAN 8-mers |
| ATAAGAAT | 0.143 % of ANNNNAAN 8-mers |
| ACCTTAAG | 0.0219 % of ANNNNAAN 8-mers |
| AGGGGAAC | 0.0414 % of ANNNNAAN 8-mers |
| ATCCCAAA | 0.0253 % of ANNNNAAN 8-mers |
| AGGGGAAA | 0.0794 % of ANNNNAAN 8-mers |
| AAGCAAAG | 0.0501 % of ANNNNAAN 8-mers |
| AGTTGAAC | 0.0253 % of ANNNNAAN 8-mers |
| AGCTAAAT | 0.0633 % of ANNNNAAN 8-mers |
| ACGCCAAC | 0.0115 % of ANNNNAAN 8-mers |
| AGAGGAAG | 0.0432 % of ANNNNAAN 8-mers |
| AGGTGAAC | 0.0259 % of ANNNNAAN 8-mers |
| ATGGTAAG | 0.127 % of ANNNNAAN 8-mers |
| AGCTTAAC | 0.0219 % of ANNNNAAN 8-mers |
| AATTTAAC | 0.147 % of ANNNNAAN 8-mers |
| AGTCGAAA | 0.0414 % of ANNNNAAN 8-mers |
| ATGCCAAT | 0.0857 % of ANNNNAAN 8-mers |
| ACAGTAAA | 0.0414 % of ANNNNAAN 8-mers |
| AGTTTAAA | 0.0938 % of ANNNNAAN 8-mers |
| AGCTCAAG | 0.0173 % of ANNNNAAN 8-mers |
| AGTAAAAG | 0.0662 % of ANNNNAAN 8-mers |
| ACTACAAT | 0.0282 % of ANNNNAAN 8-mers |
| ACATCAAT | 0.057 % of ANNNNAAN 8-mers |
| ATTTCAAG | 0.0495 % of ANNNNAAN 8-mers |
| ATCGAAAG | 0.0288 % of ANNNNAAN 8-mers |
| AACTTAAT | 0.117 % of ANNNNAAN 8-mers |
| AACTTAAG | 0.042 % of ANNNNAAN 8-mers |
| ACGGAAAA | 0.0478 % of ANNNNAAN 8-mers |
| AGTGCAAA | 0.0593 % of ANNNNAAN 8-mers |
| ACTGCAAT | 0.0213 % of ANNNNAAN 8-mers |
| ATTTTAAG | 0.131 % of ANNNNAAN 8-mers |
| ACGAGAAA | 0.0437 % of ANNNNAAN 8-mers |
| AAACCAAA | 0.0506 % of ANNNNAAN 8-mers |
| AGGAGAAA | 0.0541 % of ANNNNAAN 8-mers |
| ATTTCAAC | 0.0414 % of ANNNNAAN 8-mers |
| ATCCAAAA | 0.0414 % of ANNNNAAN 8-mers |
| AACAGAAC | 0.0242 % of ANNNNAAN 8-mers |
| ATGTTAAG | 0.146 % of ANNNNAAN 8-mers |
| AGCCTAAG | 0.0207 % of ANNNNAAN 8-mers |
| ATAGAAAA | 0.0771 % of ANNNNAAN 8-mers |
| AGTTAAAC | 0.0593 % of ANNNNAAN 8-mers |
